target: DNA (cytosine-5)-methyltransferase 1 (Homo sapiens) (UniProt P26358); assay: Inhibition of recombinant DNMT1 using S-adenosyl-L-[methyl-3H]methionine as substrate at 5 uM after 2 hrs by radioactive assay
Sequence (P26358 whole entry): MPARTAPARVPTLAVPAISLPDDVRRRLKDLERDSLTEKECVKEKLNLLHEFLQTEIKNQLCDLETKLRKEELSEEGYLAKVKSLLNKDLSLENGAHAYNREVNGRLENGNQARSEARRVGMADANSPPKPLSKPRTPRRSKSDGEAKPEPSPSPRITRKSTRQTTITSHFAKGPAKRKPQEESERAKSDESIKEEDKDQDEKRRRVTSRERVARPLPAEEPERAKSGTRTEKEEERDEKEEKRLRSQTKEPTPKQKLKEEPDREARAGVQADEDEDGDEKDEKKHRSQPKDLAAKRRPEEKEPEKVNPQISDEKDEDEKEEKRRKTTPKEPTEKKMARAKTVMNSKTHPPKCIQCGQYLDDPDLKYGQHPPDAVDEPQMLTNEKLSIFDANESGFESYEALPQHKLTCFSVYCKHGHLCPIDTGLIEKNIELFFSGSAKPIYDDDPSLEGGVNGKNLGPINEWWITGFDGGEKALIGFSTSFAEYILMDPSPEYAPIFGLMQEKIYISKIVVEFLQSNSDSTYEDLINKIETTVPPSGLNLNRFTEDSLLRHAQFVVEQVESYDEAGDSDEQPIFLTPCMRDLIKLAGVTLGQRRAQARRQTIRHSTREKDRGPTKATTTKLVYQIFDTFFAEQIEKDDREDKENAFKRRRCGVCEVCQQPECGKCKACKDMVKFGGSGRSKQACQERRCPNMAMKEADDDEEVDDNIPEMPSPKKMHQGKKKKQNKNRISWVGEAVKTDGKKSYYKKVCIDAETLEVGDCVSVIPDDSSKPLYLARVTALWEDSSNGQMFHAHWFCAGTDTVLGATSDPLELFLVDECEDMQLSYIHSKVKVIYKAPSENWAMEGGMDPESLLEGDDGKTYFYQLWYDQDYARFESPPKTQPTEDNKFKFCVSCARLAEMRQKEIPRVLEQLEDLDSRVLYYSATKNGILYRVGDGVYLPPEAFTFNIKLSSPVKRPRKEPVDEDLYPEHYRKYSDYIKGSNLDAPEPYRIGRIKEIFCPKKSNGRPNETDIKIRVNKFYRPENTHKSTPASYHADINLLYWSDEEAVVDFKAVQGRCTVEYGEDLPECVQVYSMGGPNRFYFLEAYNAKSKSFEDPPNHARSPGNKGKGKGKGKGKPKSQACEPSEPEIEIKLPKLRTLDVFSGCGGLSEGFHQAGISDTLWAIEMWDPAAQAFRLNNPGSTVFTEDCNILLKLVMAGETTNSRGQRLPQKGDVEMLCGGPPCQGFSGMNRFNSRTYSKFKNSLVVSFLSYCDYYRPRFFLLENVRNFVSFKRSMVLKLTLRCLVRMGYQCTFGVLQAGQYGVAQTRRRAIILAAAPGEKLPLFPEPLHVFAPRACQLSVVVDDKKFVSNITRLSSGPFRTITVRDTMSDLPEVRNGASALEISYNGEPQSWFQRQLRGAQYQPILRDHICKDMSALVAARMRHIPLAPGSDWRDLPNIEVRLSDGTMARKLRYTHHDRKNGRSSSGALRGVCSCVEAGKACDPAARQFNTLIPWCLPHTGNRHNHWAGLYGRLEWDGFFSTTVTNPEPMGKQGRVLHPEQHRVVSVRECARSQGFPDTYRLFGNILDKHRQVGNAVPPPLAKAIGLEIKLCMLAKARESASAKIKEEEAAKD
Activity calls are given as the source filed them. The calls are words filed in the database; no cut-off is given here.
Allowed answers: active, inactive

Input line: Could you kindly confirm the outcome this assay logged for "CSCCNC(=O)/C(Cc1c[nH]c2ccc(Br)cc12)=N/O" ?
Output line: inactive

Input line: Try this compound next: "O=C(NCCSSCCNC(=O)/C(Cc1c[nH]c2ccc(Br)cc12)=N/O)/C(Cc1c[nH]c2ccc(Br)cc12)=N/O"
Output line: active

Input line: Now the same for "O=C(NCCCCCCCCNC(=O)/C(Cc1c[nH]c2ccc(Br)cc12)=N/O)/C(Cc1c[nH]c2ccc(Br)cc12)=N/O"
Output line: inactive

Input line: // same read-out, input: "O=C(CCc1c[nH]c2ccc(Br)cc12)NCCSSCCNC(=O)CCc1c[nH]c2ccc(Br)cc12"
Output line: inactive

Input line: Entry to check: "Cn1cc(C/C(=N\O)C(=O)NCCSSCCNC(=O)/C(Cc2cn(C)c3ccc(Br)cc23)=N/O)c2cc(Br)ccc21"
Output line: inactive

Input line: How about this compound: "O=C(NCCSSCCNC(=O)/C(Cc1c[nH]c2ccc(OCc3ccccc3)cc12)=N/O)/C(Cc1c[nH]c2ccc(OCc3ccccc3)cc12)=N/O"
Output line: active

Input line: Try this compound too: "O=C(O)[C@H](Cc1c[nH]c2ccccc12)N1C(=O)c2ccccc2C1=O"
Output line: active

Input line: Input "CO/N=C(\Cc1c[nH]c2ccc(Br)cc12)C(=O)NCCSSCCNC(=O)/C(Cc1c[nH]c2ccc(Br)cc12)=N/OC"
Output line: active
